Assignment: determine reported Population Normal (%) for the given compounds.
# Tested on: HEK-293T
# Assay: Multiplex assay against HEK293T
# Type: toxicity, cell-based
# Particulars: human, 24 h, 10 µM, compound concentration 10 uM, replicate 1
Answers are plain numbers, in %.

[
  {
    "Compound": "COc1ccc(NS(=O)(=O)c2sc3ccc(Cl)cc3c2C)cc1N1CCNCC1.Cl",
    "Target Entity": "HEK-293T",
    "Population Normal (%)": 78
  },
  {
    "Compound": "CC(=O)c1cc(-c2cc(C(=O)NC3CC3)ccc2C)c2ncccn12",
    "Target Entity": "HEK-293T",
    "Population Normal (%)": 82
  },
  {
    "Compound": "O=C(O)c1ccc2cc(-c3ccc(O)c(C45CC6CC(CC(C6)C4)C5)c3)ccc2c1",
    "Target Entity": "HEK-293T",
    "Population Normal (%)": 79
  }
]

[in] Provide measured Population Normal (%) value, entry: Cc1nc(Cc2cccc(C(F)(F)F)c2)sc1-c1ccc(C(N)=O)nc1 [TP-024n]
[out] 82

Source: ChEMBL document CHEMBL4689842
